Measured values drawn from patent US7662856B2 for this set.

- TEST TARGET: alanine racemase enzyme from M. tuberculosis (Mycobacterium tuberculosis, UniProt P9WQA9, DEL103-104); note: test concentration or dose not given here
- Sequence (P9WQA9 whole entry, looked up, stated change not applied): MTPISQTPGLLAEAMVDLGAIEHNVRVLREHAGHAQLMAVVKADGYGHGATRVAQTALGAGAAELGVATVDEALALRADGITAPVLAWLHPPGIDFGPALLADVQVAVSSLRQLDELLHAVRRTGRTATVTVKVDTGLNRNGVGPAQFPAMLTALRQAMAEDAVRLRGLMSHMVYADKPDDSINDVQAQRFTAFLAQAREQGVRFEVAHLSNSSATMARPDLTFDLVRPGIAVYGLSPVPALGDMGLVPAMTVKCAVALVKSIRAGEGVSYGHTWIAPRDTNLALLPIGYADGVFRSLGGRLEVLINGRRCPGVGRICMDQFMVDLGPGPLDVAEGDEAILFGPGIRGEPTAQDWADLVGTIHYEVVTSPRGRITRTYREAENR
- Type: biochemical
QUANTITY MEASURED: % In in TB-ALR-assay (%)

• Cl.NCCC(=O)NO [HCl•H2NCH2CH2C(O)NHOH, β-Alanine Hydroxamic Acid Hydrochloride] = 79
• NC(=O)C(=O)NO [H2NC(O)C(O)NHOH, N-Hydroxyoxalamide] = 93
• CNCC(=O)NO [CH3NHCH2C(O)NHOH, Sarcosine Hydroxamic Acid] = 81
• NC(CO)C(=O)NO (centres unmarked) = 33
• N[C@@H]1CON=C1O [D-cycloserine, reference compound] = 96
• CONC(=O)CN.O=C(O)C(F)(F)F [TFA•H2NCH2C(O)NHOCH3] = 66
• Cl.NCC(=O)NO [HCl•H2NCH2C(O)NHOH, Glycine Hydroxamic Acid Hydrochloride] = 100
• NCC(=O)NO [H2NCH2C(O)NHOH, glycine hydroxamic acid] = 100
